Please go through the items and note down their koff.
Molecular target: T1, CD137-hisFc fusion protein (Sino Biological Cat 10041-H03H) (human, UniProt Q07011 24-186)
T1 construct: Bought; also called recombinant human CD137 (fused with human Fc and His tag); not shown: His tag and human Fc
Assay: BLI Octet, Fab
Your answer should be a plain number; it is taken to be in s⁻¹.

Lab book: koff of Fab 5367 (Fab, V domains shown, Fab from E. coli; also called VH31/VL31) VH: EVQLVESGGGLVQPGGSLRLSCAASGFSLSTSGVGVGWIRQAPGKGLEWVSGISGAGDSTYYADSVKGRFTISRDNSKNTLYLQLNSLRAEDTAVYYCAREGSDTVLGDWFAYWGQGTLVTVSS VL: DIQLTQSPSSLSASVGDRVTITCRASQDIRSYLAWYQQKPGKAPKLLIYDASNRATGIPSRFSGSGSGTDFTLTISSLQPEDFATYYCQQGYSIWTFGQGTKVEIKR noted as 0.00608

Value of measured koff for the entry Fab 3760 (Fab, V domains shown, Fab from E. coli; also called VH1/VL1) VH: EVQLVESGGGLVQPGGSLRLSCAASGFTFTSYGIHWVRQAPGKGLEWVSGISGAGDTTYYADSVKGRFTISRDNSKNTLYLQLNSLRAEDTAVYYCARERDYDFDYWGQGTLVTVSS VL: DIQLTQSPSSLSASVGDRVTITCRASQSVSSYLAWYQQKPGKAPKLLIYDASNLETGVPSRFSGSGSGTDFTLTISSLQPEDFATYYCQQSYSTSHTFGQGTKVEIKR : 0.00444

Entry Fab 7166 (Fab, V domains shown, Fab from E. coli; also called VH60/VL60) VH: EVQLVESGGGLVQPGGSLRLSCAASGFSLSTSGVAVAWIRQAPGKGLEWIGDIYHSGNTYYNPSLKSRVTISRDNSKNTLYLQLNSLRAEDTAVYYCARGGSDTVVGDWFAYWGQGTLVTVSS VL: DIQLTQSPSSLSASVGDRVTITCRASQSISSYLNWYQQKPGKAPKLLIYAASTLQSGVPSRFSGSGSGTDFTLTISSLQPEDFATYYCQQYYSTPLTFGQGTKVEIKR — recorded koff = 0.00429

get_value(item= Fab 5417 (Fab, V domains shown, Fab from E. coli; also called VH39/VL39) VH: EVQLVESGGGLVQPGGSLRLSCAASGFSLSTSGVGVAWIRQAPGKGLEWVSSISGAGGTTYYADSVKGRFTISRDNSKNTLYLQLNSLRAEDTAVYYCARGGSTAVTGDWFDYWGQGTLVTVSS VL: DIQLTQSPSSLSASVGDRVTITCRASQGISPYLAWYQQKPGKAPKLLIYDASNRATGIPSRFSGSGSGTDFTLTISSLQPEDFATYYCQQGYSLWTFGQGTKVEIKR , readout=koff) returns 0.00231

So for Fab 5341 (Fab, V domains shown, Fab from E. coli; also called VH20/VL20) VH: EVQLVESGGGLVQPGGSLRLSCAASGYSITSGHHWAWIRQAPGKGLEWVSAISGDGSTTYYADSVKGRFTISRDNSKNTLYLQLNSLRAEDTAVYYCAREGSTAVTGDWFAYWGQGTLVTVSS VL: DIQLTQSPSSLSASVGDRVTITCSASSRVGYVHWYQQKPGKAPKLLIYDASSLESGVPSRFSGSGSGTDFTLTISSLQPEDFATYYCQQGYYTWTFGQGTKVEIKR , the logged koff turned out to be 0.00188
